Values were extracted from the supplement of paper PMC9170038.

- System: MS2 coat protein
- TEST METHOD NOTES: apparent KD of MS2 coat protein; designed switch direction (-1 OFF switch, 1 ON switch): -1; higher = weaker reporter binding
- CONDITION SET: input ligand: FMN 200 uM
Mark N for apparent KD of MS2 coat protein values under 0.06 µM, and Y for everything at or above.

[[record]]
input_sequence = "UGCGGUUGAGGAUAUACGUAGAACUAGGUUCAUGUAAAACUACAUGAGGAUCACCCAUGUAGAAGGCAAUCGCU [Mat - Exclusion 2 - JL Mod - D41] (Eterna round: R97, puzzle: Exclusion 2)"
category = "N"

[[record]]
input_sequence = "ACAUGUAAUGCAGGAUAUUUGACACAUGAGGAUCACCCAUGUGACCAGAGGAAUUGCUAUGAGUCGAAGAAGGGUAUGUACAUG [Ex NG2 #55] (Eterna round: R96, puzzle: Exclusion NG 2)"
category = "N"

[[record]]
input_sequence = "CAAAGACCGGCAGGAUAUUGACCCAGAACAUGAGGAUCACCCAUGUCAACAAGGUUGGACCAGGGCGAGAAGGGCCACGCCAAA [Eternabot solution 22] (Eterna round: R96, puzzle: Exclusion NG 2)"
category = "N"

[[record]]
input_sequence = "UUAAUUACGGUGCUUUAACCUCACAUGAGGAUCACCCAUGUGCAGGAUAUCAGCUCGUGUAGAGCUGAGAAGGGCACUGCACCG [ExNG3/11-A3] (Eterna round: R96, puzzle: Exclusion NG 3)"
category = "N"

[[record]]
input_sequence = "GGUGGUAUGUCAGGAUAUACAGCCUAAAUGGAAGUAGAAGGGACACAUGAGGGUCACCCAUGUGACAUGAGGAUCACCCAUGUA [Hi3 10-05-2015] (Eterna round: R96, puzzle: Exclusion NG 1)"
category = "Y"

[[record]]
input_sequence = "UACAUGAGGAUCACCCAUGUUUUGUCGUGUAUGGUAUUUAUCUAGGAUAUCAUUUUAUUUAUUUAUGAGAAGGAGAAUAUUAAU [JMF's solution 6] (Eterna round: R96, puzzle: Exclusion NG 3)"
category = "N"

[[record]]
input_sequence = "GCAUGUUGGUAGGAUAUGCAGCGAAAACCGCUAGUAGAAGGAUUGACAUGAGGAUCACCCAUGUGAACCGAAGG [Esesbece] (Eterna round: R97, puzzle: Exclusion 6)"
category = "Y"

[[record]]
input_sequence = "CCUCUACAUGAGGAUCACCCAUGUGAGGAUAUCAAAGCCAGAACGGAUCUCUGGCCCAUGAGAAGGUGCAUGGA [EX1 A.2] (Eterna round: R97, puzzle: Exclusion 1)"
category = "Y"

[[record]]
input_sequence = "GGCCUGUAAGGAUAUUAGUAGUAGUCAGAAUAGACUAUUACUGAGAAGGUACAUGAGGAUCACCCAUGUUGGCC [Eli x4 4.06] (Eterna round: R97, puzzle: Exclusion 4)"
category = "N"

[[record]]
input_sequence = "UAGUACCAAGGAUAUGCGUGACCAUGGCCUCCGUGGUAGAGACAUGAGGAUCACCCAUGUAGAAGGUGGAUAAC [Eternabot (L1) Solution 74] (Eterna round: R97, puzzle: Exclusion 2)"
category = "Y"

